Would you kindly list TGI for each of these molecules?
system: SR leukemia; test: NCI tumour cell line growth inhibition, 48 h
Unit µM implied. Number only.

`COc1ccc(-c2nn(-c3cccc(NC(=O)c4ccc5c(c4)OCCO5)c3)cc2-c2ccncc2)cc1Cl` has a reported TGI of 5.66

`C[C@@H]1CC[C@@H]2[C@@H]1[C@H](OC(=O)/C=C/c1ccccc1)[C@]1(C3CCCCC3)C[C@@H](NC(=O)CO)[C@@]2(C)O1` has a reported TGI of 41.2

`O=[N+]([O-])c1ccc2c(c1)Nc1c3ccccc3nc3cccc-2c13` has a reported TGI of 8.91

###

test system: SF-539 CNS; assay: NCI tumour cell line growth inhibition, 48 h
Would you kindly list GI50 for each of these compounds?

COc1ccc(C2=NN(C(=O)c3cc(OC)c(OC)c(OC)c3)C(c3ccc(Cl)cc3)C2)cc1OC (stereo not given) has a reported GI50 of 2060 nM

CNC(=O)c1ccc2cc(C3(O)CCn4cncc43)ccc2c1 (stereo not given) has a reported GI50 of > 100000 nM

`CC(C)(C#N)c1cc(F)cc(C(=O)Nc2cc(Nc3ncccc3-c3ncnc4nc[nH]c34)ccc2F)c1` has a reported GI50 of 527 nM

`COc1ccc2nc3cc(Cl)ccc3c(N3CCN(c4ccnc(N5CCOCC5)n4)CC3)c2c1` has a reported GI50 of > 100000 nM

`O=C(c1ccco1)c1nc2cc(F)ccc2[n+]([O-])c1C(F)(F)F` has a reported GI50 of > 100000 nM
